system: Plasmodium falciparum; test: Gametocytocidal activity against transgenic GFP-fused Plasmodium falciparum NF54 early stage gametocytes after 72 hrs by Mitotracker Red CMH2XRos staining based imaging method; format: functional, organism-based; conditions: NF54, 72 h
reported.property: IC50
Remember to put the unit after the number in your answer.

Briefly, IC50 measured for Cc1ccc(NC(=O)CN(Cc2ccc(C(=O)NO)cc2)C(=O)c2cc(C)cc(C)c2)cc1 : 7.6 µM

Memo: COc1ccc2nc3cc(Cl)ccc3c(Nc3cc(CN4CCCC4)c(O)c(CN4CCCC4)c3)c2n1 , reported IC50: 0.029 µM

###

system: Plasmodium falciparum; assay: Gametocytocidal activity against transgenic GFP-fused Plasmodium falciparum NF54 late stage gametocytes after 72 hrs by Mitotracker Red CMH2XRos staining based imaging method; assay type: functional, organism-based; conditions: NF54, 72 h
What IC50 was measured for each of the following?

The measured IC50 associated with COc1ccc2nc3cc(Cl)ccc3c(Nc3cc(CN4CCCC4)c(O)c(CN4CCCC4)c3)c2n1 [PYRONARIDINE] reads 1.71 µM

Please fill in: IC50 reported for Cc1ccc(NC(=O)CN(Cc2ccc(C(=O)NO)cc2)C(=O)c2cc(C)cc(C)c2)cc1 = 7.28 µM

###

biological target: Histone deacetylase 1 (Homo sapiens, UniProt Q13547); test: Inhibition of recombinant full length human C-terminal His/FLAG tagged HDAC1 expressed in baculovirus infected Sf9 insect cells using ZMAL as substrate measured after 90 mins by fluorescence assay
Sequence (Q13547 whole entry): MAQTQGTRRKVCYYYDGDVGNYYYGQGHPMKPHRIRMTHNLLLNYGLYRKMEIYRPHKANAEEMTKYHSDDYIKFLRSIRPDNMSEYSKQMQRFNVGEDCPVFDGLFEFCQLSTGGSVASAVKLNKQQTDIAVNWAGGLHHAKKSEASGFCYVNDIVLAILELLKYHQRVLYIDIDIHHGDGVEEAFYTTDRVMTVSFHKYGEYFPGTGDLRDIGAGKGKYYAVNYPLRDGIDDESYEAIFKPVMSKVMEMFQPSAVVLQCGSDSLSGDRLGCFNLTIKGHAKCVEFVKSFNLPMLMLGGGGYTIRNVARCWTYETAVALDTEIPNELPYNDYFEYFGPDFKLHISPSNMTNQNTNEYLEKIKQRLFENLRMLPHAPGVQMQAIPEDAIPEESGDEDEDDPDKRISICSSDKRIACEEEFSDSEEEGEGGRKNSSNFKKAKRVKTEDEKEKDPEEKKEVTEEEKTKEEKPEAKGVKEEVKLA
reported.property: pIC50
Reminder that pIC50 is minus the log10 of a molar concentration.

Kindly note: Histone deacetylase 1 (Homo sapiens, UniProt Q13547), O=C(CN(Cc1ccc(C(=O)NO)cc1)C(=O)c1cccc2ccccc12)NC1CCCCC1 , pIC50 value reported: 6.26

Entry Cc1ccc(C(=O)N(CC(=O)NC(C)(C)C)Cc2ccc(C(=O)NO)cc2)cc1C under Histone deacetylase 1 (Homo sapiens, UniProt Q13547) had pIC50 of 6.37

Form field pIC50 for item CC(C)c1ccc(C(=O)N(CC(=O)NC2CCCCC2)Cc2ccc(C(=O)NO)cc2)cc1 on Histone deacetylase 1 (Homo sapiens, UniProt Q13547): 7.07

So the reported pIC50 for Cc1ccc(C(=O)N(CC(=O)NC2CCCCC2)Cc2ccc(C(=O)NO)cc2)cc1C , on Histone deacetylase 1 (Homo sapiens, UniProt Q13547), turned out to be 6.52

# pIC50 measured on Histone deacetylase 1 (Homo sapiens, UniProt Q13547) for item CCCCNC(=O)CN(Cc1ccc(C(=O)NO)cc1)C(=O)c1ccc(N(C)C)cc1 = 7.40

// returns pIC50 for Cc1ccc(NC(=O)CN(Cc2ccc(C(=O)NO)cc2)C(=O)c2ccc(N(C)C)cc2)cc1 with Histone deacetylase 1 (Homo sapiens, UniProt Q13547); value = 7.10

###

molecular target: Protein deacetylase HDAC6 (Homo sapiens); experiment: Inhibition of recombinant full length human N-terminal GST-tagged HDAC6 expressed in baculovirus infected Sf9 insect cells using ZMAL as substrate measured after 90 mins by fluorescence assay
Sequence (Q9UBN7 whole entry): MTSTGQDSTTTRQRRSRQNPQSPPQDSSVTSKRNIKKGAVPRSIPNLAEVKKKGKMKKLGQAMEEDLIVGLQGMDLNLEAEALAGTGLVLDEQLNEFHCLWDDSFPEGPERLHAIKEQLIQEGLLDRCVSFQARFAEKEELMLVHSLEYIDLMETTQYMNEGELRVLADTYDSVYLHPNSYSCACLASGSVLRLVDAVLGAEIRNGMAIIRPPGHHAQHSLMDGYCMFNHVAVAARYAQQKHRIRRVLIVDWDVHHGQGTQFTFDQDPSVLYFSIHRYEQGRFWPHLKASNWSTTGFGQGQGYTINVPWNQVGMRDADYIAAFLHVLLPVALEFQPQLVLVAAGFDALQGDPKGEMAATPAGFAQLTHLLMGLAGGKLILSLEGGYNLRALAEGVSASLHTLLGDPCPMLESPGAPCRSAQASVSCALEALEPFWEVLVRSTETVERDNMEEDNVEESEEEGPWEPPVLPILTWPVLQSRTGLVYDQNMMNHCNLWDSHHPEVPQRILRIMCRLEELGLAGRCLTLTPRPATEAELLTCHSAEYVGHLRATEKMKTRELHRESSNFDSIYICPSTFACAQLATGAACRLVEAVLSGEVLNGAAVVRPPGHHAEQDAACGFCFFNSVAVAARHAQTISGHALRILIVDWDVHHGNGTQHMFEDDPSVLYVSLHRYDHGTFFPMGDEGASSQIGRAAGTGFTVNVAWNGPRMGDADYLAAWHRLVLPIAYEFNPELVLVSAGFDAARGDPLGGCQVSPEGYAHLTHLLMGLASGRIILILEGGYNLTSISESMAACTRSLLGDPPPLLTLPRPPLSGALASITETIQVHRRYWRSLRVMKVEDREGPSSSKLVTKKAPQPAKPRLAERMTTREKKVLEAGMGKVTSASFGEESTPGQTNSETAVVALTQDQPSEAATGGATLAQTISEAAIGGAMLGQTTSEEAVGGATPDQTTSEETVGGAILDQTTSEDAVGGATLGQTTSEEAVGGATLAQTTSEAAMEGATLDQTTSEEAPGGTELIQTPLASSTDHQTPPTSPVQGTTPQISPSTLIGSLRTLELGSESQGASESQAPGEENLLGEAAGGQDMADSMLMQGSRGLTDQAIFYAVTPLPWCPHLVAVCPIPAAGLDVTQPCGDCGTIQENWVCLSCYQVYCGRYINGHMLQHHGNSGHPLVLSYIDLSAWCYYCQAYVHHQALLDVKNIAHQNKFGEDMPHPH
reported.property: IC50 (nM)
Reply numerically in nM, unit not repeated.

CC(C)c1ccc(C(=O)N(CC(=O)NC2CCCCC2)Cc2ccc(C(=O)NO)cc2)cc1 yielded IC50 of 64

Entry Cc1ccc(C(=O)N(CC(=O)NC(C)(C)C)Cc2ccc(C(=O)NO)cc2)cc1C , IC50 reported as 57

CCCCNC(=O)CN(Cc1ccc(C(=O)NO)cc1)C(=O)c1ccc(N(C)C)cc1 has a reported IC50 of 35

###

assay: Selectivity index, ratio of IC50 for human HepG2A16 cells to IC50 for exo-erythrocytic stage of GFP-Luc-fused Plasmodium berghei ANKA infected in human HepG2 cells
reported.property: selectivity ratio

GET /value?item= O=C1C(O)=C([C@H]2CC[C@H](c3ccc(Cl)cc3)CC2)C(=O)c2ccccc21 [ATOVAQUONE] &field=selectivity ratio returns > 35000

###

test system: Plasmodium falciparum; assay: Antiplasmodial activity against Plasmodium falciparum
reported.property: IC50

Reported IC50 ( CC(/C=C/C(=O)NO)=C\[C@@H](C)C(=O)c1ccc(N(C)C)cc1 ) = 8 to 11 nM

###

system: Plasmodium berghei; assay: Antiplasmodial activity against exo-erythrocytic stage of GFP-Luc-fused Plasmodium berghei ANKA infected in human HepG2 cells after 48 hrs by bioluminescence assay; conditions: HepG2, 48 h
reported.property: IC50 (nM)
Write the answer as a number in nM, unit excluded.

IC50 reading for O=C1C(O)=C([C@H]2CC[C@H](c3ccc(Cl)cc3)CC2)C(=O)c2ccccc21 [ATOVAQUONE] : 0.014

response.value for Cc1ccc(NC(=O)CN(Cc2ccc(C(=O)NO)cc2)C(=O)c2cc(C)cc(C)c2)cc1 (field: IC50) = 5550

###

experiment: in vitro; conditions: human
Description: Selectivity index, ratio of IC50 for human NFF cells to IC50 for drug-sensitive asexual ring stage Plasmodium falciparum 3D7 infected in human erythrocytes
reported.property: selectivity ratio

So for Cc1ccc(NC(=O)CN(Cc2ccc(C(=O)NO)cc2)C(=O)c2cccc3ccccc23)cc1 , the logged selectivity ratio turned out to be 256 to 303
